- Tested on: K24384-001-R-PDC KRAS patient-derived spheroid viability;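 further: spheroids exposed to agents for 7 days before readout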
- METHOD DESCRIPTION: Anticancer human tumor K24384-001-R-PDC patient-derived pancreatic adenocarcinoma cell line growth inhibition [KRAS2]
- CONDITION: curve of first compound; second compound 10 µM; spheroids with HUVEC and MSC
Each entry below carries its reported IC50.

Answered cases to consult:
The measured IC50 associated with CC(=O)OC12COC1CC(O)C1(C)C(=O)C(O)C3=C(C)C(OC(=O)C(O)C(NC(=O)OC(C)(C)C)c4ccccc4)CC(O)(C(OC(=O)c4ccccc4)C21)C3(C)C (stereo unspecified) + COc1cc2nc(C)nc(NC(C)c3cc(N)cc(C(F)(F)F)c3)c2cc1OC1CCOC1 reads < 0.01 µM

The measured IC50 associated with Cn1nccc1Nc1nccc(-c2cc3c(s2)C(C)(C)N(CCN2CCOCC2)C3=O)n1 + COc1cc2nc(C)nc(NC(C)c3cc(N)cc(C(F)(F)F)c3)c2cc1OC1CCOC1 reads 0.118 µM

The reported IC50 of the compound Cn1ncnc1[C@H]1c2n[nH]c(=O)c3cc(F)cc(c23)N[C@@H]1c1ccc(F)cc1 + CC1OCC2(CCN(c3cnc(Sc4ccnc(N)c4Cl)c(N)n3)CC2)C1N was > 0.1 µM

Kindly note the recorded IC50 for CCN1CCN(Cc2ccc(Nc3ncc(F)c(-c4cc(F)c5nc(C)n(C(C)C)c5c4)n3)nc2)CC1 + CC1OCC2(CCN(c3cnc(Sc4ccnc(N)c4Cl)c(N)n3)CC2)C1N , which is 0.0216 µM

get_value(item= CCN1CCN(Cc2ccc(Nc3ncc(F)c(-c4cc(F)c5nc(C)n(C(C)C)c5c4)n3)nc2)CC1 + CNCc1ccccc1-c1csc(C(C)Nc2nc(C)nc3cc(OC)c(OC)cc23)c1 , readout=IC50) returns < 0.00316 µM

Lab note: COc1cc(Nc2ncc3c(n2)-c2ccc(Cl)cc2C(c2c(F)cccc2OC)=NC3)ccc1C(=O)O + CNCc1ccccc1-c1csc(C(C)Nc2nc(C)nc3cc(OC)c(OC)cc23)c1 gave IC50 of < 0.0316 µM

The value of IC50 measured for the compound Cn1ncnc1[C@H]1c2n[nH]c(=O)c3cc(F)cc(c23)N[C@@H]1c1ccc(F)cc1 + COc1cc2nc(C)nc(NC(C)c3cc(N)cc(C(F)(F)F)c3)c2cc1OC1CCOC1 turned out to be > 0.1 µM

CC(C)n1nc(-c2ccc3oc(N)nc3c2)c2c(N)ncnc21 + CC1OCC2(CCN(c3cnc(Sc4ccnc(N)c4Cl)c(N)n3)CC2)C1N has a reported IC50 of 0.00373 µM

Memo: Cn1nccc1Nc1nccc(-c2cc3c(s2)C(C)(C)N(CCN2CCOCC2)C3=O)n1 + CNCc1ccccc1-c1csc(C(C)Nc2nc(C)nc3cc(OC)c(OC)cc23)c1 , reported IC50: < 0.0316 µM

# IC50 (compound: COc1cc(Nc2ncc3c(n2)-c2ccc(Cl)cc2C(c2c(F)cccc2OC)=NC3)ccc1C(=O)O + COc1cc2nc(C)nc(NC(C)c3cc(N)cc(C(F)(F)F)c3)c2cc1OC1CCOC1 ) is > 10 µM

Consider the record given below.
Recorded IC50 (compound COc1cc2nccc(Oc3ccc(NC(=O)C4(C(=O)Nc5ccc(F)cc5)CC4)cc3)c2cc1OC + CC1OCC2(CCN(c3cnc(Sc4ccnc(N)c4Cl)c(N)n3)CC2)C1N ): > 10 µM
